TARGET DESC: Sodium channel protein type 5 subunit alpha (Homo sapiens)
Sequence (Q14524 whole entry): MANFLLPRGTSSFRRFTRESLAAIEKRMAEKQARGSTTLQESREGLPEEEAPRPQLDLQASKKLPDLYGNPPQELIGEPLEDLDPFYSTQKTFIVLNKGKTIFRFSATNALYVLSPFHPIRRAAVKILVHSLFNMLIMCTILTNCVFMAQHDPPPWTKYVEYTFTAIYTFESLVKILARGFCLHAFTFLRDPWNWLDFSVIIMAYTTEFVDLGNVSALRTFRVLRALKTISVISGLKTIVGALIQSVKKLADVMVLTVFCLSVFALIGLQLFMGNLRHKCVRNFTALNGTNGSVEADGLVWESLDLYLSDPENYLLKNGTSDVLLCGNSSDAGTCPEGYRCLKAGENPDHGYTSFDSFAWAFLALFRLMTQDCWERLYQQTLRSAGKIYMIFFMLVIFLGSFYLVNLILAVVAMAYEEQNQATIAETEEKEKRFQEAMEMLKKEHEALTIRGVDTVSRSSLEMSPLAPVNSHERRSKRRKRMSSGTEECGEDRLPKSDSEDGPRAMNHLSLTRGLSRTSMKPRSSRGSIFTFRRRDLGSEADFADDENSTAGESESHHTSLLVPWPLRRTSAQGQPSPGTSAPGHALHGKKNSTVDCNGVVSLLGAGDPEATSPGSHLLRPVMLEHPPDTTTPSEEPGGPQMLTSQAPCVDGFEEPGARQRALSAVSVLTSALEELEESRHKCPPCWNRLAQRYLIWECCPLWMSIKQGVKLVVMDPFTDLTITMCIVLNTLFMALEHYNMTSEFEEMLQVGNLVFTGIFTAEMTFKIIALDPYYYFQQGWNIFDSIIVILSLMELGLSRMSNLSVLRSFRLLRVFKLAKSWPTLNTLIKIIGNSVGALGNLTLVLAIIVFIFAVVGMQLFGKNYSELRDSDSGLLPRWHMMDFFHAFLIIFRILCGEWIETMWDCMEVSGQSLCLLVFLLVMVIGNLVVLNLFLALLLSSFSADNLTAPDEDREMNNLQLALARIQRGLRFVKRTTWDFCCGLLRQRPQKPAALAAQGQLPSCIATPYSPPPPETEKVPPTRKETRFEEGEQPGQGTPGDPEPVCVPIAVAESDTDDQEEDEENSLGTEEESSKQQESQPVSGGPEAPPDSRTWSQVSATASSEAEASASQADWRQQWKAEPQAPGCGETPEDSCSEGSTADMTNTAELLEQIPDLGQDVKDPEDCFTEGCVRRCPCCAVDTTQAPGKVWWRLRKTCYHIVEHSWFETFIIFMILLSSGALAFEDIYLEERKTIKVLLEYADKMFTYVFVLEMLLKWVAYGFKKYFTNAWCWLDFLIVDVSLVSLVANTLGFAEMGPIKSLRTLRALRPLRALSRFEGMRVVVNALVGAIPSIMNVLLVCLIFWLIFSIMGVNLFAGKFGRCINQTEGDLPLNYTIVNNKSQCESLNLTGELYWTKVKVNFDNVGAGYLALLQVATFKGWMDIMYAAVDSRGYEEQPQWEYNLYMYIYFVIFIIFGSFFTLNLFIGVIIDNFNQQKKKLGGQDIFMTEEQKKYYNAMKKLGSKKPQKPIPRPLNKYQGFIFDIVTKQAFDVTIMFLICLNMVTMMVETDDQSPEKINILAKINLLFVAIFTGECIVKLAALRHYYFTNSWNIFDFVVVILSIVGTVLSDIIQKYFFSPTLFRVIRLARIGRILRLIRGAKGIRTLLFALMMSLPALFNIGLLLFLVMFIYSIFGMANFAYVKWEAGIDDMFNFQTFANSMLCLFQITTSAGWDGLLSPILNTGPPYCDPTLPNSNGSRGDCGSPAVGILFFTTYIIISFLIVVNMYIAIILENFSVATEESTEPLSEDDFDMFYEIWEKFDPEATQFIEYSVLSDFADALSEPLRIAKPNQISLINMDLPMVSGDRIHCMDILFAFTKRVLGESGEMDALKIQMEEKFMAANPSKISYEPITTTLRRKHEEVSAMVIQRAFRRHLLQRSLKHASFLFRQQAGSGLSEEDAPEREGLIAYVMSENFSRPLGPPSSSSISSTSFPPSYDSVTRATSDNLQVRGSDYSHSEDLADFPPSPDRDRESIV
PROCEDURE TEXT: Inhibition of Nav1.5 (unknown origin) by patch clamp assay
EXPERIMENTAL READOUT: IC50

So what does the record say about IC50 for `CCOC[C@@H](CC(C)C)NC(=O)[C@@H]1CNC[C@H](C(=O)N(c2ccc(C(C)C)cn2)C2CC2)[C@@H]1O` ?
> 30 µM

* * *

TARGET DESC: Sodium channel protein type 2 subunit alpha (Homo sapiens)
Sequence (Q99250 whole entry): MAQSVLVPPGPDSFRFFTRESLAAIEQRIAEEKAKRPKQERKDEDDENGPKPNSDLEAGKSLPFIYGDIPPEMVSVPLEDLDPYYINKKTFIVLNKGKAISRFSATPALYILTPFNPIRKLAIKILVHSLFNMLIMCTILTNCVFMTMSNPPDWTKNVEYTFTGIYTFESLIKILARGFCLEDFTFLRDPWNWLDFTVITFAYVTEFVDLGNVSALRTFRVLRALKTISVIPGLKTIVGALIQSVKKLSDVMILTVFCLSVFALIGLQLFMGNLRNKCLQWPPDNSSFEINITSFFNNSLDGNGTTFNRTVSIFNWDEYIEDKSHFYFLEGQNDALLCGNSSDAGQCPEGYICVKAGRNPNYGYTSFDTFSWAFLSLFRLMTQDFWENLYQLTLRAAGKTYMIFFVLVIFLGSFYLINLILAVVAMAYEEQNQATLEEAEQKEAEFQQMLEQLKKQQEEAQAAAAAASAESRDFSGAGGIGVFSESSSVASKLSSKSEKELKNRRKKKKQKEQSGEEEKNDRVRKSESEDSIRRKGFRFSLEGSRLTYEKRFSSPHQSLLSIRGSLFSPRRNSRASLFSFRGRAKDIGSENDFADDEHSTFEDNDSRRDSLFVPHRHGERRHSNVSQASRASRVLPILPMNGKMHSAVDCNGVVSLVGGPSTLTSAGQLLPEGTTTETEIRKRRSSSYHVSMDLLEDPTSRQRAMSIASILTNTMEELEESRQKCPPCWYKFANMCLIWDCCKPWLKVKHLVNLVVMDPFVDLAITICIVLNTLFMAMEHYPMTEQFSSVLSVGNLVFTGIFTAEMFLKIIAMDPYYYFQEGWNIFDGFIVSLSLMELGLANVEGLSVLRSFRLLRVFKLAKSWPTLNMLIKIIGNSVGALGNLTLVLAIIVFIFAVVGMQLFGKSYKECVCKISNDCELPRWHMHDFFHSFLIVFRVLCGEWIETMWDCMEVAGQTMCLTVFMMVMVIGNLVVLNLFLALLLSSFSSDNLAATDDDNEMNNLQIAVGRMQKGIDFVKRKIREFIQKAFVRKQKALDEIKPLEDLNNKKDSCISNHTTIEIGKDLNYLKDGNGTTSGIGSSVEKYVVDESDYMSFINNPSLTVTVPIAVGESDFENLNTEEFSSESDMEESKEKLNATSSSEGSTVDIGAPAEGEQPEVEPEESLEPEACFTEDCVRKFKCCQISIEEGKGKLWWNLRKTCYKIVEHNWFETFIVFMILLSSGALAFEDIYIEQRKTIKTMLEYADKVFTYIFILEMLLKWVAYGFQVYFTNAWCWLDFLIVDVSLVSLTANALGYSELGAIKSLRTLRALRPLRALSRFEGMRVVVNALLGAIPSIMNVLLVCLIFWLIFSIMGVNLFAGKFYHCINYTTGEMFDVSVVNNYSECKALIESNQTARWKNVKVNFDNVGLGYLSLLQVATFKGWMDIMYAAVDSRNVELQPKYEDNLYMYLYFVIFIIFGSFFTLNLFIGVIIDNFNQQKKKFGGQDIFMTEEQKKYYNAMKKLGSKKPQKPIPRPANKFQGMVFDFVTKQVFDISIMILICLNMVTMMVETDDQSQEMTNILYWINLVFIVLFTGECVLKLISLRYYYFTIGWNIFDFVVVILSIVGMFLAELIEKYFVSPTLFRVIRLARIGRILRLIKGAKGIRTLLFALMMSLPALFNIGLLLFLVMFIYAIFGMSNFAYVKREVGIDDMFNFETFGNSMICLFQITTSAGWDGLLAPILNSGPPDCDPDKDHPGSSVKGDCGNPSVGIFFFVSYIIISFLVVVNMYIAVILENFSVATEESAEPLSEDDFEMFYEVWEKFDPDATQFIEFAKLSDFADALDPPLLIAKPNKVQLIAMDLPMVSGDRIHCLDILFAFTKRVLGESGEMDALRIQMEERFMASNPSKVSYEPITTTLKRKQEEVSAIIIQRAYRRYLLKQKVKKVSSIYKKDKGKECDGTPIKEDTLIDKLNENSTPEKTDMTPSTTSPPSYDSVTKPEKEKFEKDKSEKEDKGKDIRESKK
PROCEDURE TEXT: Inhibition of Nav1.2 (unknown origin) by patch clamp assay
EXPERIMENTAL READOUT: IC50

So what does the record say about IC50 for `CCOC[C@@H](CC(C)C)NC(=O)[C@@H]1CNC[C@H](C(=O)N(c2ccc(C(C)C)cn2)C2CC2)[C@@H]1O` ?
> 30 µM

FYI, the data here is from ChEMBL document CHEMBL3352242.
